# Tested on: CCRIS mutagenicity, Ames/micronucleus/aberration tests
# protocol_summary: CCRIS mutagenicity studies
# condition_description: Test System: AMES SALMONELLA TYPHIMURIUM; Strain/Indicator: TA1537; Metabolic Activation: RAT, LIVER, S-9, AROCLOR 1254; Method: STANDARD PLATE
# Description: The CCRIS database contains chemical records with carcinogenicity, mutagenicity, tumor promotion, and tumor inhibition test results. It was developed by the National Cancer Institute (NCI). Data are derived from studies cited in primary journals, current awareness tools, NCI reports, and other sources. Test results have been reviewed by experts in carcinogenesis and mutagenesis. CCRIS provides historical information from the years 1985 - 2011. It is no longer updated. […]
Active and inactive are the calls of the source. How the calls were made is not given here.
Possible outcomes: active, inactive

{"molecule": "O=C(O)c1cc(Cl)cc2cccnc12", "class_label": "active"}
{"molecule": "COC(=O)c1ccc(C(=O)OC)cc1", "class_label": "inactive"}
{"molecule": "CCc1cn([C@H]2C[C@H](O)[C@@H](CO)O2)c(=O)[nH]c1=O", "class_label": "inactive"}
{"molecule": "C/C=C\\c1cc(OC)c(OC)cc1OC", "class_label": "inactive"}
{"molecule": "Cc1ccc(NCCO)cc1O", "class_label": "inactive"}
{"molecule": "C/C=C/C=C/C=O", "class_label": "inactive"}
{"molecule": "C#C[C@]1(OC(=O)CCCCCC)CC[C@H]2[C@@H]3CCC4=CC(=O)CC[C@@H]4[C@H]3CC[C@@]21C", "class_label": "inactive"}
{"molecule": "OCCNc1ccc(N=Nc2ccc(N(CCO)CCO)cc2)cc1", "class_label": "inactive"}
{"molecule": "NCCNCCO", "class_label": "inactive"}
{"molecule": "CCOC(=O)CC(=O)CCl", "class_label": "inactive"}
{"molecule": "O=C1CCC(N2C(=O)c3ccccc3C2=O)C(=O)N1 (centres undefined)", "class_label": "inactive"}
{"molecule": "CC(C)=CC1C(C(=O)O)C1(C)C (centres undefined)", "class_label": "inactive"}
{"molecule": "Nc1ncn([C@@H]2O[C@H](CO)[C@@H](O)[C@@H]2O)c(=O)n1", "class_label": "inactive"}
{"molecule": "Cc1cc(O)c2c(c1)C(=O)c1cc(O)cc(O)c1C2=O", "class_label": "active"}

Values were extracted from PubChem BioAssay AID1259407.
